- Tested on: NCI/ADR-RES
- procedureSummary: NCI tumour cell line growth inhibition, 48 h
Active and inactive are the calls of the source. No stated cut-off is given here; in the data, active = GI50 up to about 1.1 µM and inactive = higher.
resultType: GI50

The examples below pair each entry with its known result.
COc1ccc(\N=C/C=C/C(=C/COC(C)=O)OC(C)=O)cc1	39.3 µM (inactive)
N#CC(c1cc(Cl)ncn1)c1nc2ccccc2s1 (centres undefined)	3.29 µM (inactive)
O=[N+]([O-])/C(Cl)=C(/C(Cl)=C(Cl)Cl)N1CCCCC1	4.06 µM (inactive)
COc1cc(Br)c(OC)c2c(OC)cc(C)cc12	> 100 µM (inactive)
CCCCOc1ccc(OCCCCCCCCCC[N+](C)(C)C)cc1	58.9 µM (inactive)

Would you kindly share the measured GI50 for CC(=O)Nc1nc(O)c2nc(C=O)cnc2n1 ? > 100 µM (inactive)

Follow-up item: CC(O)c1nc(C#N)c(N)o1 (centres undefined) > 100 µM (inactive)

Please give the result for COc1cc2nc3n(c(=O)c2cc1OC)CCCCC3 too. > 100 µM (inactive)

Similarly, COC1C=COC2(C)Oc3c(C)c(O)c4c(O)c(c(C5SCCS5)c(O)c4c3C2=O)NC(=O)C(C)=C/C=C\C(C)C2OC(C)(C)OC(C2C)C(C)C(OC(C)=O)C1C (centres undefined) ? 11.6 µM (inactive)

###

- Test system: HCT-116
- procedureSummary: NCI tumour cell line growth inhibition, 48 h
The source made the active and inactive calls. No stated cut-off is given here; in the data, active = GI50 up to about 1.1 µM and inactive = higher.
resultType: GI50

// lookup GI50 for N#Cc1cccc(-n2[nH]c(=O)ccc2=O)c1 > 100 µM (inactive)

Repeat with O=C([O-])C1([n+]2c(-c3ccccc3)cc(-c3ccccc3)cc2-c2ccccc2)CC1 41.1 µM (inactive)

Field entry: Cc1ccc(S(=O)(=O)N/N=C(\c2nc3ccc([N+](=O)[O-])cc3nc2O)C(O)c2ccccc2Cl)cc1 (centres undefined) > 100 µM (inactive)

How about O=C(O[C@@H](/C=C/c1ccccc1)P1(=O)N(Cc2ccccc2)[C@H]2CCCC[C@@H]2N1Cc1ccccc1)c1ccccc1 ? 3.02 µM (inactive)

###

- Test system: UACC-257
- procedureSummary: NCI tumour cell line growth inhibition, 48 h
Calls of active or inactive are those of the source. Rule as the data show it: active = GI50 up to about 1.1 µM and inactive = higher.
Below, each entry is listed with its recorded GI50.

Consider the reported GI50 for these compounds:
COC(=O)C(C(=O)C(=O)Nc1ccccc1C)c1nc2ccc([N+](=O)[O-])cc2nc1O (centres undefined)	> 100 µM (inactive)
CSc1nc(NC2OCC(O)C(O)C2O)c(N)c(=O)[nH]1 (centres undefined)	> 100 µM (inactive)
CCc1cc2c(c3c1CCCC3=O)CC1(Cc3ccc(C(=O)OC)cc3C1)C2 (centres undefined)	32.1 µM (inactive)
COc1ccc(/N=N/c2c(-c3ccccc3)nn(C(=O)CC(=O)Nc3cccc(Cl)c3)c2-c2ccccc2)cc1	> 100 µM (inactive)
CN(Cc1cc(Cl)c(Cl)cc1NC(=O)CN)[C@H]1CCCC[C@@H]1N1CCCC1	16.9 µM (inactive)
CC(C)(C)N1C(=O)[N-]/[N+](=C(/C(c2ccccc2)=[N+]2/[N-]C(=O)N(C(C)(C)C)C2=O)c2ccccc2)C1=O	> 100 µM (inactive)
CC(=S)NC1C(Oc2ccc3c(C)cc(=O)oc3c2)OC(CO)C(O)C1O (centres undefined)	> 100 µM (inactive)
COc1cccc(C(=O)Nc2c3ccccc3nc3ccccc23)c1OC	> 100 µM (inactive)
O=C([O-])C1([n+]2c(-c3ccccc3)cc(-c3ccccc3)cc2-c2ccccc2)CC1	25.4 µM (inactive)
OCCOCCO[P+]1(OCCOCCO)n2c3ccc2C(c2ccccc2)=C2C=CC(=N2)C(c2ccccc2)=c2ccc(n21)=C(c1ccccc1)C1=NC(=C3c2ccccc2)C=C1	0.0268 µM (active)

# GI50 lookup, item C[C@]12CC(c3ccccc3O1)C(C#N)C(=O)N2 (some centres undefined) > 100 µM (inactive)

Also check Oc1nc2nc3ccccc3nc2nc1O > 100 µM (inactive)

Continue with CCCCCCCCCCCCCCCCCCNc1ccn(C2OC(COP(=O)(O)O)C(O)C2O)c(=O)n1 (centres undefined) > 100 µM (inactive)

Entry Cc1ccc2cccc(-c3cccc4ccccc34)c2n1 please 29.9 µM (inactive)

###

- Test system: SF-268
- procedureSummary: NCI tumour cell line growth inhibition, 48 h
Calls of active or inactive are those of the source. No stated cut-off is given here; in the data, active = GI50 up to about 1.1 µM and inactive = higher.
In this section, each of the compounds is paired with its reported GI50.

Examples with answers:
Nc1nc(Cl)cc(NCC2(O)CCC2)n1	> 100 µM (inactive)
CSc1nc(NC2OCC(O)C(O)C2O)c(N)c(=O)[nH]1 (stereo not drawn)	> 100 µM (inactive)

Field: next compound
Name the reported GI50 value associated with the compound COc1ccc(-c2csc(-n3c(-c4ccccc4)nc4c(Br)cc(Br)cc4c3=O)n2)cc1 15.6 µM (inactive)

###

- Tested on: NCI-H23
- procedureSummary: NCI tumour cell line growth inhibition, 48 h
Active and inactive are the calls of the source. No stated cut-off is given here; in the data, active = GI50 up to about 1.1 µM and inactive = higher.
Respond with a class label; see active, inactive

Recorded test call requested for S=c1c2ccccc2c(=S)n2n1CC=CC2 inactive

Queued: O=C(N/C=C/C=C/Sc1ccccc1)OCc1ccccc1 inactive

And the next one, OCCNCN(CNCCO)c1nc(N(CNCCO)CNCCO)nc(N(CNCCO)CNCCO)n1 ? active

###

This section presents compounds with their documented GI50 values.
- System: M14
- procedureSummary: NCI tumour cell line growth inhibition, 48 h
The source made the active and inactive calls. No stated cut-off is given here; in the data, active = GI50 up to about 1.1 µM and inactive = higher.

CC#CC1/C(=C\C(=O)OC)CCCC1O (configuration not stated)	> 100 µM (inactive)

Please report the recorded GI50 for Cc1ccc(C)n2c1nc1cc3ccccc3cc12 . 42.6 µM (inactive)

Another compound to check: CC(NC(=O)OC(C)(C)C)C(=O)NC(Cc1ccccc1)C(=O)NCC(=O)ON=C1CCCC1 (configuration not stated) 53.3 µM (inactive)

Continue with COC1OC(C)C2OC(C)(C)OC2C1OC(C)=O (configuration not stated) > 100 µM (inactive)

Now the compound COc1cc2c(c(OC)c1OC)-c1ccc(=O)c(O)cc1[C@@H](NC(C)=O)CC2 24.7 µM (inactive)

Record: Cc1cc(C)c2c(c1C)CN1CN2Cc2c(C)c(C)cc(C)c21 > 100 µM (inactive)

And COc1ccc2c(c1)c(=O)c1c(NCCN(C)C)ccc3nnn2c31 ? 3.99 µM (inactive)

Ok, now COc1ccc(OC)c(/C=C/c2cnnc3ccccc23)c1 5.21 µM (inactive)

// same read-out, input: CC(C)(CN)CN > 100 µM (inactive)

Now consider O=C(Cc1cccs1)N[C@@H]1C(=O)N2C(C(=O)OC(c3ccccc3)c3ccccc3)=C(CO)CS[C@H]12 and answer again. > 100 µM (inactive)

Another: N#C/C(=C\NC(=S)c1ccncc1)c1nc2ccccc2s1 > 100 µM (inactive)

Thanks! And COc1ccc(OC)c(NC(=O)C(=O)C(C(=O)c2ccccc2F)C2OC(=O)c3ccccc32)c1 (configuration not stated) ? > 100 µM (inactive)

And for O=S(=O)(N/N=C\c1c2ccccc2[n+]([O-])c2ccccc12)c1ccc(Cl)cc1 ? > 100 µM (inactive)

Moving on to the next compound: O=C(N/C(=C\c1cccc([N+](=O)[O-])c1)c1nc2c3c(ccc2[nH]1)C(=O)c1ccccc1C3=O)c1ccccc1 45.5 µM (inactive)

###

- Test system: DLD-1
- procedureSummary: NCI tumour cell line growth inhibition, 48 h
Calls of active or inactive are those of the source. Cut-off read from the data, not from the text of the source: active = GI50 up to about 1.1 µM and inactive = higher.
Can you answer with just one of these options? active, inactive

Recorded results for 8 molecules are shown here.
O=C(c1ccccc1)C(c1ccccc1)C1(O)C(=O)Nc2c(Cl)cc(Cl)cc21 (configuration not stated)	inactive
COc1ccc(-c2oc3cc(O)c(OC)c(O)c3c(=O)c2O)cc1 [BETULETOL]	inactive
COC(=O)C(C(=O)C(=O)Nc1ccccc1C)c1nc2ccc([N+](=O)[O-])cc2nc1O (configuration not stated)	inactive
N/N=C(\c1nc2ccc(Cl)cc2nc1O)C(O)c1ccc(Cl)c(Cl)c1 (configuration not stated)	inactive
NNC(=O)C(=O)N/N=C1\CCCC1C(=O)CCC(=O)Nc1cccc(Cl)c1 (configuration not stated)	inactive
N=C(N)Nc1ncccc1[N+](=O)[O-]	inactive
NC(=O)COc1ccc(Br)cc1Br	inactive
CC(=O)NC1=C[C@@H]([C@H]2COC(C)(C)O2)OC1=O	inactive

# lookup: test call for O=C1c2ccccc2C(=O)c2c(/C=C\N3CCCCC3)ccnc21 inactive

Entry CCOC(=O)/C=C(\C)c1ccc(OC)cc1 please inactive

Now give it for CN(C)CCNC(=O)c1cccc2cc3ccc4ccccc4c3nc12 too. active

Entry C=C(OC1C(C)=C2C(C1OC(=O)CCCCCCC)C(C)(OC(C)=O)CC(OC(=O)CCC)C1(O)C2OC(=O)C1(C)O)/C(C)=C/C (configuration not stated) please active
